# Tested on: Caco-2 cell monolayers
# Test summary: Dioxin transport and cellular association in dynamic gut-on-a-chip model
# Assay type: in vitro ADME, human
# Run parameters: Chip; 0.2 ng/mL each congener, 24 h; n = 3
Measured quantity: Mass balance (sum of AP, BL compartments and cellular fraction) (%)
Answers are plain numbers, in %.

Clc1cc2oc3c(Cl)c(Cl)c(Cl)c(Cl)c3c2cc1Cl [1,2,3,4,7,8-HxCDF]
97
Clc1cc2c(c(Cl)c1Cl)Oc1cc(Cl)c(Cl)c(Cl)c1O2 [1,2,3,6,7,8-HxCDD]
92
Clc1cc2c(oc3c(Cl)c(Cl)c(Cl)c(Cl)c32)c(Cl)c1Cl [1,2,3,4,6,7,8-HpCDF]
97
Clc1cc2c(cc1Cl)Oc1cc(Cl)c(Cl)cc1O2 [2,3,7,8-TCDD, 2,3,7,8-tetrachlorodibenzo-p-dioxin]
85
Clc1cc2c(c(Cl)c1Cl)Oc1c(Cl)c(Cl)c(Cl)c(Cl)c1O2 [1,2,3,4,6,7,8-HpCDD]
97

Kindly give each listed record's Mass balance (sum of AP, BL compartments and cellular fraction).
1. Clc1cc2c(oc3cc(Cl)c(Cl)c(Cl)c32)c(Cl)c1Cl [1,2,3,6,7,8-HxCDF]
2. Clc1cc2oc3c(Cl)c(Cl)c(Cl)c(Cl)c3c2c(Cl)c1Cl [1,2,3,4,7,8,9-HpCDF]
3. Clc1cc2c(oc3c(Cl)c(Cl)c(Cl)cc32)c(Cl)c1Cl [2,3,4,6,7,8-HxCDF]
4. Clc1cc2c(c(Cl)c1Cl)Oc1c(cc(Cl)c(Cl)c1Cl)O2 [1,2,3,7,8,9-HxCDD]
5. Clc1cc2oc3cc(Cl)c(Cl)c(Cl)c3c2c(Cl)c1Cl [1,2,3,7,8,9-HxCDF]

Ans.
94
97
97
93
91

---

Field: Mass balance (sum of AP, BL compartments and cellular fraction). Provide a value for each of the compounds that follow.
# System: Caco-2 cell monolayers
# Test summary: Dioxin transport and cellular association in static Transwell model
# Assay type: in vitro ADME, human
# Run parameters: Transwell; 0.2 ng/mL mixture, 24 h; n = 3
Numbers only, in %.

Answered examples (5):
Clc1cc2c(c(Cl)c1Cl)Oc1c(Cl)c(Cl)c(Cl)c(Cl)c1O2
83
Clc1cc2c(oc3c(Cl)c(Cl)c(Cl)c(Cl)c32)c(Cl)c1Cl
93
Clc1cc2oc3c(Cl)c(Cl)c(Cl)c(Cl)c3c2c(Cl)c1Cl
83
Clc1cc2c(cc1Cl)Oc1cc(Cl)c(Cl)cc1O2
81
Clc1cc2oc3cc(Cl)c(Cl)c(Cl)c3c2c(Cl)c1Cl
84

For the 5 compounds below, give their Mass balance (sum of AP, BL compartments and cellular fraction) values.
1. Clc1cc2c(oc3cc(Cl)c(Cl)c(Cl)c32)c(Cl)c1Cl
2. Clc1cc2c(c(Cl)c1Cl)Oc1cc(Cl)c(Cl)c(Cl)c1O2
3. Clc1cc2c(c(Cl)c1Cl)Oc1c(cc(Cl)c(Cl)c1Cl)O2
4. Clc1cc2c(oc3c(Cl)c(Cl)c(Cl)cc32)c(Cl)c1Cl
5. Clc1cc2oc3c(Cl)c(Cl)c(Cl)c(Cl)c3c2cc1Cl

Ans.
93
92
93
87
85

Source of measurements: paper PMC9086222
